Values compiled from patent US20240270821A1.

System: Intestinal organoid from Göttingen minipig jejunum tissue, 2D monolayer
Experiment Description: Cell based in vitro permeability (Papp) assay
Assay type: in vitro ADME
Experimental: Intestinal organoid from Göttingen minipig jejunum tissue and its 2D monolayer are generated using the protocol previously described ([…]-Thiele, […].; Wells, J. M., Optimized procedures for generating an enhanced, near physiological 2D culture system from porcine intestinal organoids. […] After 7 days of culture, organoids are dissociated into single cells by TrypLE (GIbco), and the single cell suspension is added in 24-well transparent transwell inserts (0.3 cm^2, Falcon, BD). […]
Starred links: 1 amine or outer side, 2 acyl side, 3 side chain; linkers in the order of their positions; H or OH if unused. Non-standard residues stand in square brackets, D forms with d. Groups on a side chain read outwards from the residue. No end group written: not given here. *: point of attachment. C18 diacid = O=C(O)CCCCCCCCCCCCCCCCC(=O)*; αMePhe(2-F) = C[C@](N)(Cc1ccccc1F)C(=O)O; γGlu = O=C(O)[C@H](CCC(=O)[*:2])N[*:1]; αMe4Pal = C[C@](N)(Cc1ccncc1)C(=O)O; αMeY = C[C@](N)(Cc1ccc(O)cc1)C(=O)O; 4Pal = N[C@@H](Cc1ccncc1)C(=O)O; αMeL = CC(C)C[C@](C)(N)C(=O)O; αMeS = C[C@](N)(CO)C(=O)O; Orn = NCCC[C@H](N)C(=O)O; Dab = NCC[C@H](N)C(=O)O; AEEA = NCCOCCOCC(=O)O; Aib = CC(C)(N)C(=O)O
Observation Type: Relative Papp (Compared to internal standard)
Numbers only.

Quick request: Relative Papp (Compared to internal standard) for each listed item, please.
1. H-Y[Aib]QGTFTSD[4Pal]S[Dab][αMeL]LDKK([AEEA-γGlu-C18 diacid])AQ[Aib]AFIEYLIE[Aib]GESSGAPPPSGS-NH2 [Example 188]
2. H-Y[Aib]QGT[αMePhe(2-F)]TSD[4Pal][αMeS]I[αMeL]LD[Orn]K([γGlu-γGlu-C18 diacid])AQ[αMe4Pal]EFI[dE][αMeY]LVEGGPSSGEPPPSGS-NH2 [Example 737]
3. H-Y[Aib]QGTFTSDFS[Orn][αMeL]LDKK([AEEA-γGlu-C18 diacid])AQ[Aib]AFIEYLLE[dA]GPSSGAPPPSGS [Example 212]
4. H-Y[Aib]QGTFTSD[4Pal]SR[αMeL]LDKK([AEEA-γGlu-C18 diacid])AQ[αMe4Pal]AFIEYLIE[Aib]GESSGAPPPSGS-NH2 [Example 224]
5. H-Y[Aib]QGTFTSDFS[Orn][αMeL]LDKK([AEEA-γGlu-C18 diacid])AQ[Aib]AFIEWLLEGGPSSGAPPPEGS-NH2 [Example 121]
6. H-Y[Aib]QGTFTSD[4Pal]S[Orn][αMeL]LDKK([AEEA-γGlu-C18 diacid])AQ[αMe4Pal]AFIEYLIE[Aib]GPSSGAPPPSGS-NH2 [Example 808]

(A)
0.46
0.69
0.22
0.35
0.08
0.29
